# credit: patent US11427531B2

Target: recombinant Kv7.2/3 channels (Homo sapiens, UniProt O43525+O43526)
Construct: expressed in transfected cells; host or cells: CHO cells
Test: Whole-cell patch clamp of recombinant Kv7.2/3 currents in transfected CHO cells
Format: cell-based
Conditions: compound at 5 μM; N = 5-12
Parameter measured: V50 (parameter of potency for Kv7.2/3 At 5 μM) (mV)
// return numeric value only (unit: mV, not printed)

// known answers, use as guide
Compound | Measured
CC(C)(O)CNC(=O)Cc1cc(Nc2c(Cl)cc(Cl)cc2Cl)ccc1F | −30.3
CC(C)(CO)CNC(=O)Cc1cc(Nc2c(Cl)cc(Cl)cc2Cl)ccc1F | −41.1
O=C(Cc1cc(Nc2c(Cl)cc(Cl)cc2Cl)ccc1F)NC1CCC(O)C1 (stereo not shown) | −38.5
CCOC(=O)Nc1ccc(NCc2ccc(F)cc2)cc1N [Retigabine, reference compound] | −30.4
O=C(Cc1cc(Nc2c(Cl)cc(Cl)cc2Cl)ccc1F)NCCO [NH43, reference compound] | −42.0

Per the records, this compound ( CC(C)(O)CCNC(=O)Cc1cc(Nc2c(Cl)cc(Cl)cc2C2CC2)ccc1F ) has V50 (parameter of potency for Kv7.2/3 At 5 μM) equal to −67.4

For record O=C(Cc1cc([N+](=O)[O-])cc([N+](=O)[O-])c1Nc1c(Cl)cc([N+](=O)[O-])cc1Cl)NCCO [NH29, reference compound] the listed V50 (parameter of potency for Kv7.2/3 At 5 μM) is −27.4

----------
Biological target: recombinant Kv7.2/3 channels (Homo sapiens, UniProt O43525+O43526)
Experiment: Whole-cell patch clamp of recombinant Kv7.2/3 currents in transfected CHO cells
Details: N = 5-10
Known pEC50 of a selection of compounds
Entry type: numeric. Quantity: pEC50, the -log10 of concentration in molar units.

Compound | Assayed system | pEC50
CC(C)(CO)CNC(=O)Cc1cc(Nc2c(Cl)cc(Cl)cc2Cl)ccc1F [NH82] | recombinant Kv7.2/3 channels (Homo sapiens, UniProt O43525+O43526) | 6.30
O=C(Cc1ccc(Nc2c(Cl)cc(C(F)(F)F)cc2Cl)cc1)NCCO [NH34, reference compound] | recombinant Kv7.2/3 channels (Homo sapiens, UniProt O43525+O43526) | 4.76
CC(C)(O)CCNC(=O)Cc1cc(Nc2c(Cl)cc(Cl)cc2C2CC2)ccc1F [NH101] | recombinant Kv7.2/3 channels (Homo sapiens, UniProt O43525+O43526) | 6.70
O=C(Cc1cc(Nc2c(Cl)cc(Cl)cc2Cl)ccc1F)NC1CCC(O)C1 (centres unmarked) [NH110] | recombinant Kv7.2/3 channels (Homo sapiens, UniProt O43525+O43526) | 5.14
CC(C)(O)CCNC(=O)Cc1cc(Nc2c(Cl)cc(Cl)cc2Cl)ccc1F [NH83] | recombinant Kv7.2/3 channels (Homo sapiens, UniProt O43525+O43526) | 6.22
CC(C)c1cc(Cl)cc(Cl)c1Nc1ccc(F)c(CC(=O)NCC(C)(C)O)c1 [NH91] | recombinant Kv7.2/3 channels (Homo sapiens, UniProt O43525+O43526) | 5.70
O=C(Cc1cc(Nc2c(Cl)cc(Cl)cc2Cl)ccc1F)NCCO [NH43, reference compound] | recombinant Kv7.2/3 channels (Homo sapiens, UniProt O43525+O43526) | 6.22

# evaluate next
pEC50 measured on CC(C)(O)CNC(=O)Cc1cc(Nc2c(Cl)cc(Cl)cc2Cl)ccc1F [NH66] = 6.00
